Origin of values: patent US4234691A

SYSTEM: L-lysine α-oxidase (Trichoderma viride)
Construct: mature processed form
Sequence (A0A0G4DCU0 77-617): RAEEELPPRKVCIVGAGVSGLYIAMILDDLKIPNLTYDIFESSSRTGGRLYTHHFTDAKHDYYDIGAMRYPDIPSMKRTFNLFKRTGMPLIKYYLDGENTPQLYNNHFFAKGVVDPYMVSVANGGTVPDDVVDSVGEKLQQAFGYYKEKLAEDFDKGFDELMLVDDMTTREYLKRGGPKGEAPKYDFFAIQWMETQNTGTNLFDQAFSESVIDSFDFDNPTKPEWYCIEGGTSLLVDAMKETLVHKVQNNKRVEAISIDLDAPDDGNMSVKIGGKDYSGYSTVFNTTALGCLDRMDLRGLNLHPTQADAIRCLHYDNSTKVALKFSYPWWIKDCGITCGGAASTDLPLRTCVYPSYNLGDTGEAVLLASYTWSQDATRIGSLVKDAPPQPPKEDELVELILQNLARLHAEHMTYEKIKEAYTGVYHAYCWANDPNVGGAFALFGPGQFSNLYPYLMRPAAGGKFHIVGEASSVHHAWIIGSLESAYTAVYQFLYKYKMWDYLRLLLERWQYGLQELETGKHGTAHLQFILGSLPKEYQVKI
ASSAY_REMARKS: Enzyme activity in the presence of metallic ions and additives (inhibition, activation, stabilization)
Type: biochemical
CONDITION: metallic ions 1mM
METRIC_NAME: Relative activity (%) in presence of metallic ions
Report the value in % with no unit label.

COMPOUND_STRUCTURE_STRING | OBSERVED_MEASUREMENT
[Cu+2] | 78.5
[Mg+2] | 99.6
[Co+2] | 91.6
[Ca+2] | 102.5
[Ba+2] | 100.0
[Li+] | 98.4
[Zn+2] | 92.7
[Mn+2] | 97.1

*Q* What measured Relative activity (%) in presence of metallic ions is associated with `[K+]` on L-lysine α-oxidase (Trichoderma viride)?
*A* 100.0
